system_under_test: Gamma-secretase
protocol_summary: Inhibition of Gamma-secretase in human IMR-32 cells after 2 hrs by ELISA assay
measured_metric: IC50 (nM)

Sample records with IC50:
{"molecule": "O=S(=O)(c1ccc(OC(F)F)cc1)N1c2ccc(F)cc2-c2n[nH]cc2C1C1CC1 (racemic)", "IC50 (nM)": 0.76}
{"molecule": "O=S(=O)(c1ccc(C(F)(F)F)cc1)N1c2cc(I)ccc2-c2n[nH]cc2C1C1CC1 (single isomer, unassigned; enantiomer 3)", "IC50 (nM)": 0.26}

[A] CCC1c2cn[nH]c2-c2ccccc2N1S(=O)(=O)c1ccc(Cl)cc1 (racemic)
[B] O=S(=O)(c1ccc(C(F)(F)F)cn1)N1c2ccc(F)cc2-c2n[nH]cc2[C@H]1C1CC1
[C] CC1c2c[nH]nc2-c2cc(F)ccc2N1S(=O)(=O)c1cn(C)cn1 (racemic)
Input line: Endpoint returns the given molecules ordered by ascending IC50. Record the ranking as a list of labels in the requested order.
Output line: A, B, C
(A: 0.36 nM, B: 0.67 nM, C: 5500 nM)

---

system_under_test: Gamma-secretase
protocol_summary: Inhibition of Gamma-secretase in human IMR-32 cells after 2 hrs by ELISA assay
pIC50: −log10 of the molar value.
measured_metric: pIC50

{"compound": "O=C1OCCN1c1ccc2c(c1)N(S(=O)(=O)c1ccc(C(F)(F)F)cc1)C(C1CC1)c1c[nH]nc1-2 (racemic)", "measured": 9.59}
{"compound": "O=S(=O)(c1ccc(C(F)(F)F)cc1)N1c2cc(-c3cscn3)ccc2-c2n[nH]cc2C1C1CC1 (racemic)", "measured": 9.39}
{"compound": "N#Cc1ccc2c(c1)N(S(=O)(=O)c1ccc(C(F)(F)F)cc1)C(C1CC1)c1c[nH]nc1-2 (racemic)", "measured": 9.77}
{"compound": "CC1c2c[nH]nc2-c2ccncc2N1S(=O)(=O)c1ccc(Cl)cc1 (racemic)", "measured": 8.59}
{"compound": "O=S(=O)(c1ccc(F)cc1)N1c2ccccc2-c2n[nH]cc2C1C1CC1 (racemic)", "measured": 9.38}

[A] CC1c2c[nH]nc2-c2ccccc2N1S(=O)(=O)c1ccccn1 (racemic)
[B] O=S(=O)(c1ccc(OC(F)(F)F)cc1)N1c2ccc(F)cc2-c2n[nH]cc2C1C1CC1 (racemic)
[C] Nc1ccc(S(=O)(=O)N2c3cc(F)c(F)cc3-c3n[nH]cc3C2C2CC2)cc1 (racemic)
Input line: // ranking: key=pIC50, reverse=True Record the ranking as a list of labels in the requested order.
Output line: B, C, A

[I] CC1c2c[nH]nc2-c2ccc(F)cc2N1S(=O)(=O)c1ccc(Cl)cc1 (racemic)
[II] O=S(=O)(c1ccc(Cl)cc1)N1Cc2c[nH]nc2-c2ccccc21
Input line: So which one has the bigger pIC50 here, I or II ? In your reply, give the label of the chosen option.
Output line: I

---

system_under_test: Gamma-secretase
protocol_summary: Inhibition of Gamma-secretase in human IMR-32 cells after 2 hrs by ELISA assay
pIC50: −log10 of the molar value.
measured_metric: pIC50

{"compound": "O=S(=O)(c1cccs1)N1c2cc(F)c(F)cc2-c2n[nH]cc2C1C1CC1 (racemic)", "measured": 8.54}
{"compound": "CC1c2c[nH]nc2-n2ccnc2N1S(=O)(=O)c1ccc(Cl)cc1 (racemic)", "measured": 7.57}
{"compound": "O=S(=O)(c1ccc(C(F)(F)F)cc1)N1c2cccnc2-c2n[nH]cc2C1C1CC1 (racemic)", "measured": 8.68}
{"compound": "CC1c2c[nH]nc2-c2ccccc2N1S(=O)(=O)c1ccc(Cl)cc1 (racemic)", "measured": 8.92}
{"compound": "CC1c2c[nH]nc2-c2ccc(OCc3ccccc3)cc2N1S(=O)(=O)c1ccc(Cl)cc1 (racemic)", "measured": 8.82}

[I] O=S(=O)(c1ccc(Cl)s1)N1c2cc(F)c(F)cc2-c2n[nH]cc2C1C1CC1 (racemic)
[II] O=S(=O)(c1ccc(C(F)(F)F)cc1)N1c2ccccc2-c2n[nH]cc2C1C1CC1 (racemic)
[III] O=S(=O)(c1ccccc1)N1c2ccccc2-c2n[nH]cc2C1C1CC1 (single isomer, unassigned; enantiomer 1)
[IV] O=S(=O)(c1ccc(Cl)cc1)N1c2ccccc2-c2n[nH]cc2C1C1CC1 (racemic)
Input line: Endpoint returns the given compounds ordered by ascending pIC50. Record the ranking as a list of labels in the requested order.
Output line: III, I, II, IV

[A] C[C@@H]1c2c[nH]nc2-c2cc(F)ccc2N1S(=O)(=O)c1ccc(Cl)cc1
[B] CC1c2c[nH]nc2-c2cc(F)ccc2N1S(=O)(=O)c1ccc(Cl)cc1 (racemic)
Input line: // pick min by pIC50: A , B In your reply, give the label of the chosen option.
Output line: B
(B: 8.80, A: 9.21)

---

protocol_summary: Oxidative metabolic stability in mouse liver microsomes at 1 uM after 30 mins in presence of 1 mM NADPH
Format: ADME, Microsome
condition_context: liver microsomes, read-out: Stability
measured_metric: remaining at 0.5 h, 1 µM (%)

Sample records with remaining at 0.5 h, 1 µM:
{"molecule": "O=C1OCCN1c1ccc2c(c1)N(S(=O)(=O)c1ccc(C(F)(F)F)cc1)C(C1CC1)c1c[nH]nc1-2 (racemic)", "readout_units": "%", "remaining at 0.5 h, 1 µM": 13}
{"molecule": "O=S(=O)(c1ccc(Cl)cc1)N1c2ccccc2-c2n[nH]cc2C1C1CC1 (racemic)", "readout_units": "%", "remaining at 0.5 h, 1 µM": 15}
{"molecule": "COc1ccc(S(=O)(=O)N2c3ccccc3-c3n[nH]cc3C2C2CC2)cc1 (racemic)", "readout_units": "%", "remaining at 0.5 h, 1 µM": 2}
{"molecule": "O=S(=O)(c1ccc(Cl)cc1)N1Cc2c[nH]nc2-c2ccccc21", "readout_units": "%", "remaining at 0.5 h, 1 µM": 2}
{"molecule": "CC1c2c[nH]nc2-n2ccnc2N1S(=O)(=O)c1ccc(Cl)cc1 (racemic)", "readout_units": "%", "remaining at 0.5 h, 1 µM": 56}

[I] CC1c2c[nH]nc2-c2ccccc2N1S(=O)(=O)c1ccccn1 (racemic)
[II] O=S(=O)(c1ccc(C(F)(F)F)cc1)N1c2cc(Cl)ccc2-c2n[nH]cc2C1C1CC1 (racemic)
[III] N#Cc1ccc(S(=O)(=O)N2c3ccccc3-c3n[nH]cc3C2C2CC2)cc1 (racemic)
Input line: Endpoint returns the given molecules ordered by ascending remaining at 0.5 h, 1 µM. Record the ranking as a list of labels in the requested order.
Output line: III, I, II
(III: 11%, I: 46%, II: 85%)

[I] O=S(=O)(c1ccc(C(F)(F)F)cc1)N1c2ccccc2-c2n[nH]cc2C1C1CC1 (racemic)
[II] O=S(=O)(c1ccc(C(F)(F)F)cc1)N1c2cc(N3CCOCC3)ccc2-c2n[nH]cc2C1C1CC1 (racemic)
[III] O=S(=O)(c1ccc(C(F)(F)F)cc1)N1c2cccnc2-c2n[nH]cc2C1C1CC1 (racemic)
[IV] Cc1nc2c(s1)N(S(=O)(=O)c1ccc(C(F)(F)F)cc1)C(C1CC1)c1c[nH]nc1-2 (racemic)
Input line: Endpoint returns the given molecules ordered by ascending remaining at 0.5 h, 1 µM. Record the ranking as a list of labels in the requested order.
Output line: IV, II, III, I

[A] O=S(=O)(c1ccc(Cl)s1)N1c2cc(F)c(F)cc2-c2n[nH]cc2C1C1CC1 (racemic)
[B] O=S(=O)(c1ccc(OC(F)(F)F)cc1)N1c2ccc(F)cc2-c2n[nH]cc2C1C1CC1 (racemic)
Input line: // pick min by remaining at 0.5 h, 1 µM: A , B In your reply, give the label of the chosen option.
Output line: A
(A: 9%, B: 55%)

[I] CC1c2c[nH]nc2-c2ccc(F)cc2N1S(=O)(=O)c1ccc(Cl)cc1 (racemic)
[II] CC1c2c[nH]nc2-c2ccc(OCc3ccccc3)cc2N1S(=O)(=O)c1ccc(Cl)cc1 (racemic)
[III] CC1c2c[nH]nc2-c2ccccc2N1S(=O)(=O)c1ccc(Cl)cc1 (racemic)
[IV] O=S(=O)(c1ccc(C(F)(F)F)cc1)N1c2c[n+]([O-])ccc2-c2n[nH]cc2C1C1CC1 (racemic)
Input line: // ranking: key=remaining at 0.5 h, 1 µM, reverse=True Record the ranking as a list of labels in the requested order.
Output line: IV, I, III, II

[1] O=S(=O)(c1ccc(F)cc1)N1c2ccccc2-c2n[nH]cc2C1C1CC1 (racemic)
[2] O=S(=O)(c1ccc(C(F)(F)F)cc1)N1c2cc(I)ccc2-c2n[nH]cc2C1C1CC1 (single isomer, unassigned; enantiomer 3)
Input line: So which one has the bigger remaining at 0.5 h, 1 µM here, 1 or 2 ? In your reply, give the label of the chosen option.
Output line: 2

[P] CC1c2c[nH]nc2-c2c(F)cccc2N1S(=O)(=O)c1ccc(Cl)cc1 (racemic)
[Q] O=S(=O)(c1ccc(C(F)(F)F)cc1)N1c2cc(-c3cncnc3)ccc2-c2n[nH]cc2C1C1CC1 (racemic)
Input line: // pick min by remaining at 0.5 h, 1 µM: P , Q In your reply, give the label of the chosen option.
Output line: Q
(Q: 3%, P: 11%)
